# test method notes: in vivo
# test context: male, Wistar, rat, iv, metabolic half-life (t1/2) in spleen
# Protocol: Female adult CD-1 mice (25–42 g body weight) were used for radiometabolite analysis of [^18F]JHU94620-d4 (n = 2, 33 and 34 MBq) and [^18F]JHU94620-d8 (n = 3, 26–33 MBq) at 30 min after intravenous tail vein injection of the radiotracer to allow for the comparison of radiometabolite analysis of [^18F]JHU94620 (Moldovan et al. [2016]). […]
readout name: half-life (min)
The response must be a number in min with no trailing unit.

Ask: What half-life value was documented for this compound, [2H]C([2H])([18F])C([2H])([2H])C([2H])([2H])C([2H])([2H])n1c(C)c(C)s/c1=N\C(=O)C1C(C)(C)C1(C)C [[^18F]JHU94620-d8] ?
Reply: 37.3

Every entry's value here was drawn from paper PMC11666850.
